test system: SF-295 CNS; assay: NCI tumour cell line growth inhibition, 48 h
MEASURED ENDPOINT: TGI

Answered examples (3):
Let me know recorded TGI for `CN(C)c1n/c(=N/c2ncn[nH]2)ss1` , thanks. > 100 µM

Let me know recorded TGI for `O=C(O)c1ccc2c(c1)nc(Nc1cccc(Cl)c1)c1ccncc12` , thanks. > 42.9 µM

Let me know recorded TGI for CC/C(C)=C1\OC(=O)C(C)C(O)C(Cc2cccnc2)NC(=O)C(NC(=O)c2ncccc2O)C(C)OC1=O (centres undefined) , thanks. > 100 µM

Now consider a different molecule.
Let me know recorded TGI for Cn1c2c(c3ccccc31)CC(=S)N1CCCC(CC2O)C1 (centres undefined) , thanks. > 100 µM

---

Listed compounds paired with reported TGI
system: K-562 leukemia; experiment: NCI tumour cell line growth inhibition, 48 h

Let me know recorded TGI for O=C1c2c(O)cc(O)cc2OC(c2ccc(O)cc2O)C1O (stereo unspecified) , thanks. > 100 µM

Let me know recorded TGI for `COc1cc(O)c2c(=O)cc(C3(O)C=CC(=O)C=C3)oc2c1` , thanks. 11.1 µM

Let me know recorded TGI for `NCCN1CC2CCC(CC2)C1` , thanks. > 10 µM

Let me know recorded TGI for `CC(=O)NNc1nc(C)c(C(/C=C/c2ccc(Cl)cc2)=N/NC(=O)C[N+](C)(C)C)s1` , thanks. > 100 µM

Let me know recorded TGI for `Cc1ccc(C)c(NC(=O)CCc2nc(=S)[nH][nH]2)c1` , thanks. > 100 µM

Let me know recorded TGI for `O=C(NCCCCCCCCNC(=O)c1cccc2ccccc12)c1cccc2ccccc12` , thanks. > 100 µM

Let me know recorded TGI for `O=C(NNC(=O)c1cc(/C=C/c2cccc([N+](=O)[O-])c2)[nH]c(=S)n1)Nc1ccc(Cl)cc1` , thanks. > 100 µM

Let me know recorded TGI for `c1ccc(-c2nnc(-c3nsc4ccccc34)o2)cc1` , thanks. > 100 µM

---
Let me know recorded TGI for `CC(C)C(/C=C/c1ccc(Br)cc1)=N\NC(N)=O` , thanks. > 100 µM

Let me know recorded TGI for `O=C(OCc1ccc2c(Cl)cc(Cl)c(O)c2n1)c1cc2ccccc2[nH]1` , thanks. 10.2 µM

Let me know recorded TGI for `Clc1nc2n(c1/C=C/c1cccs1)CCS2` , thanks. > 100 µM

---

tested on: HCC-2998 colon; assay: NCI tumour cell line growth inhibition, 48 h
Listed compounds paired with reported TGI

Answered examples (5):
Let me know recorded TGI for `CCCCn1sc(=O)n(Cc2ccc(CNC(=O)OCc3ccc4c(Br)cc(Br)c(O)c4n3)cc2)c1=O` , thanks. > 69.8 µM

Let me know recorded TGI for COc1ccc(/C(=N/NC(N)=O)C(c2ccc(OC)cc2)C2C(=O)Oc3ccccc32)cc1 (stereo not given) , thanks. > 100 µM

Let me know recorded TGI for `O=C(/C=C/c1ccc(O)c(O)c1O)OCCc1ccccc1` , thanks. > 100 µM

Let me know recorded TGI for `O=C(Nc1ccccc1F)c1cc2ccc(O)cc2oc1=Nc1cccc(C(F)(F)F)c1` , thanks. > 100 µM

Let me know recorded TGI for `Cc1cc(C)nc(SC2=C(Nc3cccc(Cl)c3C)C(=O)N(Cc3ccccc3)C2=O)n1` , thanks. > 160 µM

---
Let me know recorded TGI for `NNc1[nH]c(=S)[nH]c1C(N)=O` , thanks. > 100 µM

Let me know recorded TGI for `O=C1c2scc(-c3ccc(Cl)cc3)c2-n2cccc21` , thanks. > 100 µM

Let me know recorded TGI for `CC(=O)NNc1nc(C)c(C(/C=C/c2ccc(Cl)cc2)=N/NC(=O)C[N+](C)(C)C)s1` , thanks. > 100 µM

Let me know recorded TGI for `COc1ccc(-c2ccc(/C=N/n3c(C)nn(CN4CCN(C)CC4)c3=S)o2)c([N+](=O)[O-])c1` , thanks. > 100 µM

Let me know recorded TGI for `CCCCC(=O)Oc1ccc2c(C)cc(=O)oc2c1` , thanks. > 100 µM
